SUBJECT_OF_TEST: UniProt:P53779
ASSAY_TEXT: KINOMEscan competition binding
CONDITION_CONTEXT: read-out: %Inh JNK3
Catalogue of inhibition at 1 µM readings, one per entry.

[
  {
    "MOLECULE": "O=c1cc(N2CCOCC2)nc2n(Cc3cccc(Cl)c3Cl)c(C3CC3)nn12 [UNC10225469A]",
    "inhibition at 1 µM / %": 0
  },
  {
    "MOLECULE": "COc1cccc(OC)c1C(=O)Nc1cccc(-c2nn3ccccc3c2-c2ccnc(Nc3cccc(F)c3)n2)c1 [UNC10225310A]",
    "inhibition at 1 µM / %": 0
  },
  {
    "MOLECULE": "CS(=O)(=O)Cc1ccc(Nc2nccc(-c3c(-c4cccc(NC(=O)C5CCCCC5)c4)nn4ncccc34)n2)cc1 [UNC10225159A]",
    "inhibition at 1 µM / %": 36
  },
  {
    "MOLECULE": "Cc1ccc(NC(=O)Nc2cccc(C(F)(F)F)c2)cc1 [UNC10225187A]",
    "inhibition at 1 µM / %": 46
  },
  {
    "MOLECULE": "Cn1cc(-c2cnc(N)c3c(-c4ccc5c(c4)CCN5C(=O)Cc4ccccc4)csc23)cn1 [UNC10225012A]",
    "inhibition at 1 µM / %": 0
  }
]

====

SUBJECT_OF_TEST: CAMKK1 (Homo sapiens)
Sequence (Q8N5S9 whole entry): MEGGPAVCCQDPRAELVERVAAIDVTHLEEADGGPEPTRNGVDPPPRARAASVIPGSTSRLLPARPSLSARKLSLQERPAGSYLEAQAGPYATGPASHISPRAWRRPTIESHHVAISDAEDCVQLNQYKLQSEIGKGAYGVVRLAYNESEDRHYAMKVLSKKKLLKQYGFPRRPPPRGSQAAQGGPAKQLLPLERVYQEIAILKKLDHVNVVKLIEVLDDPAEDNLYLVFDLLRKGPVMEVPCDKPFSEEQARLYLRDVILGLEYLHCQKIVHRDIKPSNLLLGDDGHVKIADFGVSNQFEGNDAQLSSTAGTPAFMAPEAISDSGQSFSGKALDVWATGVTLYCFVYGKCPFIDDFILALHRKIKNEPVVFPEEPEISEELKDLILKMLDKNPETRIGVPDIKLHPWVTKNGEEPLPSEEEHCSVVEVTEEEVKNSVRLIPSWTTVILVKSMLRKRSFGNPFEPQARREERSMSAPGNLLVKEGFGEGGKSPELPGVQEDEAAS
ASSAY_TEXT: KINOMEscan competition binding
CONDITION_CONTEXT: read-out: %Inh CAMKK1
Label rule not met if inhibition at 1 µM falls below 3%; label rule met in every other case.

[
  {
    "COMPOUND": "COc1cccc(OC)c1C(=O)Nc1cccc(-c2nn3ccccc3c2-c2ccnc(Nc3cccc(F)c3)n2)c1 [UNC10225310A]",
    "QUALITATIVE_LABEL": "rule met"
  },
  {
    "COMPOUND": "Cn1cc(-c2cnc(N)c3c(-c4ccc5c(c4)CCN5C(=O)Cc4ccccc4)csc23)cn1 [UNC10225012A]",
    "QUALITATIVE_LABEL": "rule met"
  },
  {
    "COMPOUND": "CS(=O)(=O)Cc1ccc(Nc2nccc(-c3c(-c4cccc(NC(=O)C5CCCCC5)c4)nn4ncccc34)n2)cc1 [UNC10225159A]",
    "QUALITATIVE_LABEL": "rule not met"
  },
  {
    "COMPOUND": "Cc1ccc(NC(=O)Nc2cccc(C(F)(F)F)c2)cc1 [UNC10225187A]",
    "QUALITATIVE_LABEL": "rule met"
  }
]

====

SUBJECT_OF_TEST: UniProtKB Q9UEE5
Sequence (Q9UEE5 whole entry): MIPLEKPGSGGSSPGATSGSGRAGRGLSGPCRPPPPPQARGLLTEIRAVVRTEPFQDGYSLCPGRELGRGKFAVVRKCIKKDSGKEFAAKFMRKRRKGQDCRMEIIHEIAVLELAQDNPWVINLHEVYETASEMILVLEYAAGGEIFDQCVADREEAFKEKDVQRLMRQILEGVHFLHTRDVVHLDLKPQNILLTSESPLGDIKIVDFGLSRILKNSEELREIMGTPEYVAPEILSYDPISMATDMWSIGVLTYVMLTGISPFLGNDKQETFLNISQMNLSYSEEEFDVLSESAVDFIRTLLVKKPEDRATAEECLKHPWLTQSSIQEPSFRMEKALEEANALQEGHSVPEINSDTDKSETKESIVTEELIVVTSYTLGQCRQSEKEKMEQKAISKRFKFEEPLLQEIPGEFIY
ASSAY_TEXT: KINOMEscan competition binding
CONDITION_CONTEXT: read-out: %Inh DRAK1
MEASURED_PARAMETER: inhibition at 1 µM (%)

[
  {
    "COMPOUND": "Cc1ccc(NC(=O)Nc2cccc(C(F)(F)F)c2)cc1 [UNC10225187A]",
    "UNIT_ABBREV": "%",
    "READING": 15
  },
  {
    "COMPOUND": "Cn1cc(-c2cnc(N)c3c(-c4ccc5c(c4)CCN5C(=O)Cc4ccccc4)csc23)cn1 [UNC10225012A]",
    "UNIT_ABBREV": "%",
    "READING": 0
  },
  {
    "COMPOUND": "COc1cccc(OC)c1C(=O)Nc1cccc(-c2nn3ccccc3c2-c2ccnc(Nc3cccc(F)c3)n2)c1 [UNC10225310A]",
    "UNIT_ABBREV": "%",
    "READING": 12
  },
  {
    "COMPOUND": "CS(=O)(=O)Cc1ccc(Nc2nccc(-c3c(-c4cccc(NC(=O)C5CCCCC5)c4)nn4ncccc34)n2)cc1 [UNC10225159A]",
    "UNIT_ABBREV": "%",
    "READING": 0
  },
  {
    "COMPOUND": "O=c1cc(N2CCOCC2)nc2n(Cc3cccc(Cl)c3Cl)c(C3CC3)nn12 [UNC10225469A]",
    "UNIT_ABBREV": "%",
    "READING": 11
  }
]

====

Catalogue of inhibition at 1 µM readings, one per entry.
SUBJECT_OF_TEST: BMPR1B (Homo sapiens, UniProt O00238)
Sequence (O00238 14-502): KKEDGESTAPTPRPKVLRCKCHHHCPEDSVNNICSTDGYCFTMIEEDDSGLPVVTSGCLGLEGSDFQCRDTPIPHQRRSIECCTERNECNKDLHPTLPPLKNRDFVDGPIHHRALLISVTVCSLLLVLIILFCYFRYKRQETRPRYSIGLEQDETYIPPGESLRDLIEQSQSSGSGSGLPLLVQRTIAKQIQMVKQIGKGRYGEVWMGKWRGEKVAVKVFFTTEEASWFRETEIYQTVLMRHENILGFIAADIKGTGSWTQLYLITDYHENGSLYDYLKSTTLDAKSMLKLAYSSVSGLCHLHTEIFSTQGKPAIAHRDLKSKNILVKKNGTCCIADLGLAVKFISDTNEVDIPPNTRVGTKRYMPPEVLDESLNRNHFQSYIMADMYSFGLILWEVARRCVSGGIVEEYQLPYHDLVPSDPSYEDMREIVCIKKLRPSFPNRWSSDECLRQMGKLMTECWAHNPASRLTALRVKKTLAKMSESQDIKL
ASSAY_TEXT: KINOMEscan competition binding
CONDITION_CONTEXT: read-out: %Inh BMPR1B

[
  {
    "COMPOUND": "O=c1cc(N2CCOCC2)nc2n(Cc3cccc(Cl)c3Cl)c(C3CC3)nn12 [UNC10225469A]",
    "inhibition at 1 µM": "0%"
  },
  {
    "COMPOUND": "CS(=O)(=O)Cc1ccc(Nc2nccc(-c3c(-c4cccc(NC(=O)C5CCCCC5)c4)nn4ncccc34)n2)cc1 [UNC10225159A]",
    "inhibition at 1 µM": "19%"
  },
  {
    "COMPOUND": "Cn1cc(-c2cnc(N)c3c(-c4ccc5c(c4)CCN5C(=O)Cc4ccccc4)csc23)cn1 [UNC10225012A]",
    "inhibition at 1 µM": "6%"
  },
  {
    "COMPOUND": "COc1cccc(OC)c1C(=O)Nc1cccc(-c2nn3ccccc3c2-c2ccnc(Nc3cccc(F)c3)n2)c1 [UNC10225310A]",
    "inhibition at 1 µM": "21%"
  },
  {
    "COMPOUND": "Cc1ccc(NC(=O)Nc2cccc(C(F)(F)F)c2)cc1 [UNC10225187A]",
    "inhibition at 1 µM": "0%"
  }
]

====

Catalogue of inhibition at 1 µM readings, one per entry.
SUBJECT_OF_TEST: BIKE (Homo sapiens, UniProt Q9NSY1)
Sequence (Q9NSY1 whole entry): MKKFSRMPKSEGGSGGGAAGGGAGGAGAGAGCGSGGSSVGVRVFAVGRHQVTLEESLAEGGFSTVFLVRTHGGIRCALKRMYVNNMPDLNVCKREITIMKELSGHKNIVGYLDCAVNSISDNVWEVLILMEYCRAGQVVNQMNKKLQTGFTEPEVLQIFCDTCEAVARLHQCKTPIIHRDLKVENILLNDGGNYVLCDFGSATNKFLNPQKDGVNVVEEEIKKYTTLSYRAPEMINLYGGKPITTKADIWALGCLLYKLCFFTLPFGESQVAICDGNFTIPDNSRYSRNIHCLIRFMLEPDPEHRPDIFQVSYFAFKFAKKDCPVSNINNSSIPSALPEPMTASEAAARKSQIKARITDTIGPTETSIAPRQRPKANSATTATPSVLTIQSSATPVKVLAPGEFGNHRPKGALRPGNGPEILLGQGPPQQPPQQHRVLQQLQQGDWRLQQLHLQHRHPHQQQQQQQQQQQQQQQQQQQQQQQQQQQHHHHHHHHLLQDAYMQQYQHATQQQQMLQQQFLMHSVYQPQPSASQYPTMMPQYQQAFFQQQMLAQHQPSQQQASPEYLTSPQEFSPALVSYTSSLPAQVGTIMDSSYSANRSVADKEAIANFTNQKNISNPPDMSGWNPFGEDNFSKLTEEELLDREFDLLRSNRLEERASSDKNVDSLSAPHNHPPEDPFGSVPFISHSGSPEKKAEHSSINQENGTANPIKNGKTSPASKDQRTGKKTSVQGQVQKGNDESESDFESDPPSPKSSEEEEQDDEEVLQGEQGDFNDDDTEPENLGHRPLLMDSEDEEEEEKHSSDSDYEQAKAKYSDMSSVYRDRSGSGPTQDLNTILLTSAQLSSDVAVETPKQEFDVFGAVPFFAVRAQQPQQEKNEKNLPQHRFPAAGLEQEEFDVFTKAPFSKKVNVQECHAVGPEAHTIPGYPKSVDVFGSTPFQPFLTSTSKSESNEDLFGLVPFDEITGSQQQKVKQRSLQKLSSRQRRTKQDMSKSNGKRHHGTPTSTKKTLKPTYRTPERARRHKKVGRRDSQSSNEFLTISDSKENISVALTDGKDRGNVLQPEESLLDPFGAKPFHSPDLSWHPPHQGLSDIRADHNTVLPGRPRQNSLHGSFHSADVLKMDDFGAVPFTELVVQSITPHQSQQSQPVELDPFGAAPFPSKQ
ASSAY_TEXT: KINOMEscan competition binding
CONDITION_CONTEXT: read-out: %Inh BIKE

[
  {
    "COMPOUND": "Cn1cc(-c2cnc(N)c3c(-c4ccc5c(c4)CCN5C(=O)Cc4ccccc4)csc23)cn1 [UNC10225012A]",
    "UNIT_ABBREV": "%",
    "inhibition at 1 µM": 0
  },
  {
    "COMPOUND": "CS(=O)(=O)Cc1ccc(Nc2nccc(-c3c(-c4cccc(NC(=O)C5CCCCC5)c4)nn4ncccc34)n2)cc1 [UNC10225159A]",
    "UNIT_ABBREV": "%",
    "inhibition at 1 µM": 1
  },
  {
    "COMPOUND": "Cc1ccc(NC(=O)Nc2cccc(C(F)(F)F)c2)cc1 [UNC10225187A]",
    "UNIT_ABBREV": "%",
    "inhibition at 1 µM": 4
  },
  {
    "COMPOUND": "COc1cccc(OC)c1C(=O)Nc1cccc(-c2nn3ccccc3c2-c2ccnc(Nc3cccc(F)c3)n2)c1 [UNC10225310A]",
    "UNIT_ABBREV": "%",
    "inhibition at 1 µM": 0
  },
  {
    "COMPOUND": "O=c1cc(N2CCOCC2)nc2n(Cc3cccc(Cl)c3Cl)c(C3CC3)nn12 [UNC10225469A]",
    "UNIT_ABBREV": "%",
    "inhibition at 1 µM": 0
  }
]

====

SUBJECT_OF_TEST: ERK3 (Homo sapiens, UniProt Q16659)
Sequence (Q16659 whole entry): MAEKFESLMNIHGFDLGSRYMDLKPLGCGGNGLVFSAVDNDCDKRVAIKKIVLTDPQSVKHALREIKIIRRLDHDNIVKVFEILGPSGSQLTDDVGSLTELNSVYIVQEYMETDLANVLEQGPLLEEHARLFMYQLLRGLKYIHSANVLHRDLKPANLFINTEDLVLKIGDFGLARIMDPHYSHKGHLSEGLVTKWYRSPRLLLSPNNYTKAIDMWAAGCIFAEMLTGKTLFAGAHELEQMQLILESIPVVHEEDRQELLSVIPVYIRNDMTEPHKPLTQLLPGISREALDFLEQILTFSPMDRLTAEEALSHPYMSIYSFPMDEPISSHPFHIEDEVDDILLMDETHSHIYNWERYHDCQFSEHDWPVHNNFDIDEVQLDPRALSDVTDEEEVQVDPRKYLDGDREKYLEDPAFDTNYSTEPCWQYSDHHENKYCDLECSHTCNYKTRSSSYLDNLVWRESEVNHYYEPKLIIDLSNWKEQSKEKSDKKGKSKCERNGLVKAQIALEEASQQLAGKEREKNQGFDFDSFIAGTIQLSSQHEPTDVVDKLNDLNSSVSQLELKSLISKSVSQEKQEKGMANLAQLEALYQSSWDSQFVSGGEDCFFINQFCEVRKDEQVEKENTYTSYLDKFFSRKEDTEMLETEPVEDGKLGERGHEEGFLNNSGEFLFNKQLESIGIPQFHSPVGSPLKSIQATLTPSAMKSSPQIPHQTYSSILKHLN
ASSAY_TEXT: KINOMEscan competition binding
CONDITION_CONTEXT: read-out: %Inh ERK3
Catalogue of inhibition at 1 µM readings, one per entry.

[
  {
    "COMPOUND": "COc1cccc(OC)c1C(=O)Nc1cccc(-c2nn3ccccc3c2-c2ccnc(Nc3cccc(F)c3)n2)c1 [UNC10225310A]",
    "inhibition at 1 µM (%)": 1
  },
  {
    "COMPOUND": "Cc1ccc(NC(=O)Nc2cccc(C(F)(F)F)c2)cc1 [UNC10225187A]",
    "inhibition at 1 µM (%)": 0
  },
  {
    "COMPOUND": "O=c1cc(N2CCOCC2)nc2n(Cc3cccc(Cl)c3Cl)c(C3CC3)nn12 [UNC10225469A]",
    "inhibition at 1 µM (%)": 0
  },
  {
    "COMPOUND": "CS(=O)(=O)Cc1ccc(Nc2nccc(-c3c(-c4cccc(NC(=O)C5CCCCC5)c4)nn4ncccc34)n2)cc1 [UNC10225159A]",
    "inhibition at 1 µM (%)": 0
  },
  {
    "COMPOUND": "Cn1cc(-c2cnc(N)c3c(-c4ccc5c(c4)CCN5C(=O)Cc4ccccc4)csc23)cn1 [UNC10225012A]",
    "inhibition at 1 µM (%)": 0
  }
]

====

SUBJECT_OF_TEST: DMPK2 (Homo sapiens, UniProt Q6DT37)
Sequence (Q6DT37 whole entry): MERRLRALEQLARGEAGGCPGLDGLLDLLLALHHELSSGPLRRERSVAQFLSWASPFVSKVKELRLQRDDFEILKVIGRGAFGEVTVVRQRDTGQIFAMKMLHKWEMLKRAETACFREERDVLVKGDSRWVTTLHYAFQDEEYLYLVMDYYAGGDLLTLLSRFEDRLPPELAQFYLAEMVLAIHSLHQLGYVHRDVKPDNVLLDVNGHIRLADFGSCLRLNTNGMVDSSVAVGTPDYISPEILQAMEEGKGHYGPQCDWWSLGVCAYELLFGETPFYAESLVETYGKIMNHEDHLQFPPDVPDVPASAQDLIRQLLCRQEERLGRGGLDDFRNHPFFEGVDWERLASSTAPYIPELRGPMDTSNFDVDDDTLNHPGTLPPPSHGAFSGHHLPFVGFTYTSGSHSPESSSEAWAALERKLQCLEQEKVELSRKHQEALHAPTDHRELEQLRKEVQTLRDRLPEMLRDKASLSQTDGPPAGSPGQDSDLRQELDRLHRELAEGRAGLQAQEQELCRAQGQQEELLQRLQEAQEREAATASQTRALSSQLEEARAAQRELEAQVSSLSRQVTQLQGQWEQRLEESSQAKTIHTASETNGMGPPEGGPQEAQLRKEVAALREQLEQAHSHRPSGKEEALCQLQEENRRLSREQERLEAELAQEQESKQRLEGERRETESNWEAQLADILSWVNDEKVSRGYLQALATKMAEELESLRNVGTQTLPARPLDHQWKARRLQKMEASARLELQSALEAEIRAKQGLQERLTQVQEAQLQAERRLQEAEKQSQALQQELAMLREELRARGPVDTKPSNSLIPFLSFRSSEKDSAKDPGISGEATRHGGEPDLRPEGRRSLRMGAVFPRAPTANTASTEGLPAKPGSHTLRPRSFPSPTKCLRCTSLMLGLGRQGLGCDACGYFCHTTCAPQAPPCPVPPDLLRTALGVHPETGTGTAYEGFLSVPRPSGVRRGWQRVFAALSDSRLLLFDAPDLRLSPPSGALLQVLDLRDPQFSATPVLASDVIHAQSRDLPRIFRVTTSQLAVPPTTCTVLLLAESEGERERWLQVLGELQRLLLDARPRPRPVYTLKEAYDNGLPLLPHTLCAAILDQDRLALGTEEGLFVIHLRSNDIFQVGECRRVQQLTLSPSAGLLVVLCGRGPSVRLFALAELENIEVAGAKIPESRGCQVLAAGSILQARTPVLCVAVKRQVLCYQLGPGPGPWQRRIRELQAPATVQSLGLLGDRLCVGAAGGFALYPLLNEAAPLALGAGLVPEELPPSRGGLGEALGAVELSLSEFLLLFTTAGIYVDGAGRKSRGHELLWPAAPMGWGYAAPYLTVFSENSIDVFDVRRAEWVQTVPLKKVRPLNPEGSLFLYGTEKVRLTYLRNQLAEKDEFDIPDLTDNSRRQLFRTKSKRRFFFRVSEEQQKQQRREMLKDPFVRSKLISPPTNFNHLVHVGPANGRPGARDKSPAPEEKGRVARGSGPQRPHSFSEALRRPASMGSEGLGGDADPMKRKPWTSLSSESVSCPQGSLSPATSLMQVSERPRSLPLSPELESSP
ASSAY_TEXT: KINOMEscan competition binding
CONDITION_CONTEXT: read-out: %Inh DMPK2
Catalogue of inhibition at 1 µM readings, one per entry.

[
  {
    "COMPOUND": "CS(=O)(=O)Cc1ccc(Nc2nccc(-c3c(-c4cccc(NC(=O)C5CCCCC5)c4)nn4ncccc34)n2)cc1 [UNC10225159A]",
    "SUBJECT_OF_TEST": "DMPK2 (Homo sapiens, UniProt Q6DT37)",
    "inhibition at 1 µM (%)": 35
  },
  {
    "COMPOUND": "COc1cccc(OC)c1C(=O)Nc1cccc(-c2nn3ccccc3c2-c2ccnc(Nc3cccc(F)c3)n2)c1 [UNC10225310A]",
    "SUBJECT_OF_TEST": "DMPK2 (Homo sapiens, UniProt Q6DT37)",
    "inhibition at 1 µM (%)": 84
  },
  {
    "COMPOUND": "Cc1ccc(NC(=O)Nc2cccc(C(F)(F)F)c2)cc1 [UNC10225187A]",
    "SUBJECT_OF_TEST": "DMPK2 (Homo sapiens, UniProt Q6DT37)",
    "inhibition at 1 µM (%)": 0
  },
  {
    "COMPOUND": "O=c1cc(N2CCOCC2)nc2n(Cc3cccc(Cl)c3Cl)c(C3CC3)nn12 [UNC10225469A]",
    "SUBJECT_OF_TEST": "DMPK2 (Homo sapiens, UniProt Q6DT37)",
    "inhibition at 1 µM (%)": 0
  },
  {
    "COMPOUND": "Cn1cc(-c2cnc(N)c3c(-c4ccc5c(c4)CCN5C(=O)Cc4ccccc4)csc23)cn1 [UNC10225012A]",
    "SUBJECT_OF_TEST": "DMPK2 (Homo sapiens, UniProt Q6DT37)",
    "inhibition at 1 µM (%)": 81
  }
]

Source listed as paper PMC5540273.
